# Tested on: 596521-263-R-J1-PDC complex spheroids, viability % of control
# ASSAY_METHOD_TEXT: Anticancer human tumor 596521-263-R-J1-PDC patient-derived soft tissue sarcoma cell line growth inhibition [GQUAD]; active means viability on the fitted dose curve at most 10% of control; inactive means the rest
# EXPERIMENTAL_CONDITIONS: second compound 1 µM; first compound 1 µM
# Excerpt: DNA G-quadruplex Stabilizer Agents in Combinations in Complex Spheroids A high-throughput screen of multi-cell type tumor spheroids was designed to identify active combinations of DNA G-quadruplex stabilizer agents and targeted small molecules. […] Compounds. […] If the clinical Cmax for an agent had not been determined, the highest concentration tested was 10 microM. […]
Choose one outcome from this list and give only that: TRUE (active), FALSE (inactive)

compound="Nc1ccn(C2OC(CO)C(O)C2(F)F)c(=O)n1 (configuration not stated) + CN(C)c1ccc(Nc2c3ccc(NC(=O)CCN4CCCC4)cc3nc3cc(NC(=O)CCN4CCCC4)ccc23)cc1" tgt="596521-263-R-J1-PDC complex spheroids, viability % of control" answer_label=FALSE
compound="COc1cc(C2c3cc4c(cc3C(OC3OC5COC(C)OC5C(O)C3O)C3COC(=O)C23)OCO4)cc(OC)c1O (configuration not stated) + CN(C)c1ccc(Nc2c3ccc(NC(=O)CCN4CCCC4)cc3nc3cc(NC(=O)CCN4CCCC4)ccc23)cc1" tgt="596521-263-R-J1-PDC complex spheroids, viability % of control" answer_label=FALSE
compound="COc1ncnc(C2CC2)c1-c1ncc2cnn(Cc3ccc(-c4nc(C(F)(F)F)cn4C(C)C)cc3)c2n1 + Cc1cnc(CNC(=O)c2c(=O)c3ccc(N4CCCN(C)CC4)nc3n3c2sc2ccccc23)cn1" tgt="596521-263-R-J1-PDC complex spheroids, viability % of control" answer_label=FALSE
compound="O=C(NO)c1cnc(N2CCN(S(=O)(=O)c3ccc4ccccc4c3)CC2)nc1 + Cc1cnc(CNC(=O)c2c(=O)c3ccc(N4CCCN(C)CC4)nc3n3c2sc2ccccc23)cn1" tgt="596521-263-R-J1-PDC complex spheroids, viability % of control" answer_label=TRUE
compound="CC(=O)O[C@H]1C(=O)[C@@]2(C)[C@H]([C@H](OC(=O)c3ccccc3)[C@]3(O)C[C@H](OC(=O)[C@H](O)[C@@H](NC(=O)c4ccccc4)c4ccccc4)C(C)=C1C3(C)C)[C@]1(OC(C)=O)CO[C@@H]1C[C@@H]2O + CN(C)c1ccc(Nc2c3ccc(NC(=O)CCN4CCCC4)cc3nc3cc(NC(=O)CCN4CCCC4)ccc23)cc1" tgt="596521-263-R-J1-PDC complex spheroids, viability % of control" answer_label=FALSE

Q. What is the recorded call for this compound in the test? CC1COCCN1c1cc(-c2ccnn2C)c2ccnc(-c3ccn[nH]3)c2n1 (configuration not stated) + Cc1cnc(CNC(=O)c2c(=O)c3ccc(N4CCCN(C)CC4)nc3n3c2sc2ccccc23)cn1
A. FALSE

Q. What is the recorded call for this compound in the test? CC1COCCN1c1cc(C2(O)CC3CCC(C2)O3)c2cnn(-c3ccn[nH]3)c2n1 (configuration not stated) + Cc1cnc(CNC(=O)c2c(=O)c3ccc(N4CCCN(C)CC4)nc3n3c2sc2ccccc23)cn1
A. FALSE

Q. What is the recorded call for this compound in the test? O=C(c1cc(Cc2n[nH]c(=O)c3ccccc23)ccc1F)N1CCN(C(=O)C2CC2)CC1 + CN(C)c1ccc(Nc2c3ccc(NC(=O)CCN4CCCC4)cc3nc3cc(NC(=O)CCN4CCCC4)ccc23)cc1
A. FALSE

Q. What is the recorded call for this compound in the test? CC(=O)O[C@H]1C(=O)[C@@]2(C)[C@H]([C@H](OC(=O)c3ccccc3)[C@]3(O)C[C@H](OC(=O)[C@H](O)[C@@H](NC(=O)c4ccccc4)c4ccccc4)C(C)=C1C3(C)C)[C@]1(OC(C)=O)CO[C@@H]1C[C@@H]2O + Cc1[nH]c2ccc(F)cc2c1-c1nc2c3cccnc3c3ncccc3c2[nH]1
A. TRUE

Q. What is the recorded call for this compound in the test? CCCS(=O)(=O)Nc1ccc(F)c(C(=O)c2c[nH]c3ncc(-c4ccc(Cl)cc4)cc23)c1F + CN(C)c1ccc(Nc2c3ccc(NC(=O)CCN4CCCC4)cc3nc3cc(NC(=O)CCN4CCCC4)ccc23)cc1
A. FALSE

----------
# Tested on: 596521-263-R-J1-PDC complex spheroids, viability % of control
# ASSAY_METHOD_TEXT: Anticancer human tumor 596521-263-R-J1-PDC cell line growth inhibition [GQUAD];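 further: spheroids exposed to drugs for 7 days before viability reading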
# EXPERIMENTAL_CONDITIONS: curve of first compound; second compound 0.1 µM
# From the text: DNA G-quadruplex Stabilizer Agents in Combinations in Complex Spheroids A high-throughput screen of multi-cell type tumor spheroids was designed to identify active combinations of DNA G-quadruplex stabilizer agents and targeted small molecules. […] Compounds. […] If the clinical Cmax for an agent had not been determined, the highest concentration tested was 10 microM. […]
For each of the molecules below, state its IC50.
Give bare numbers, in nM.

Worked cases, IC50 given:
molecule="C=CCn1c(=O)c2cnc(Nc3ccc(N4CCN(C)CC4)cc3)nc2n1-c1cccc(C(C)(C)O)n1 + CN(C)c1ccc(Nc2c3ccc(NC(=O)CCN4CCCC4)cc3nc3cc(NC(=O)CCN4CCCC4)ccc23)cc1" measured_quantity=IC50 numeric_value=544
molecule="Cc1[nH]c2ccccc2c1CCNCc1ccc(/C=C/C(=O)NO)cc1 + Cc1cnc(CNC(=O)c2c(=O)c3ccc(N4CCCN(C)CC4)nc3n3c2sc2ccccc23)cn1" measured_quantity=IC50 numeric_value=57.5
molecule="C#Cc1c(F)ccc2cc(O)cc(-c3ncc4c(N5CC6CCC(C5)N6)nc(OCC56CCCN5CC(F)C6)nc4c3F)c12 (stereo not given) + Cc1[nH]c2ccc(F)cc2c1-c1nc2c3cccnc3c3ncccc3c2[nH]1" measured_quantity=IC50 numeric_value=1390

Entry COc1ncnc(C2CC2)c1-c1ncc2cnn(Cc3ccc(-c4nc(C(F)(F)F)cn4C(C)C)cc3)c2n1 + Cc1[nH]c2ccc(F)cc2c1-c1nc2c3cccnc3c3ncccc3c2[nH]1 , IC50 reported as 1500

----------
# System: 596521-263-R-J1-PDC complex spheroids, viability % of control
# ASSAY_METHOD_TEXT: Anticancer human tumor 596521-263-R-J1-PDC cell line growth inhibition [GQUAD];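 further: spheroids exposed to drugs for 7 days before viability reading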
# EXPERIMENTAL_CONDITIONS: curve of first compound; second compound 0.1 µM
For each of the compounds below, state its IC50.
Numbers only, in µM.

compound="CC1COCCN1c1cc(C2(S(C)(=N)=O)CC2)nc(-c2ccnc3[nH]ccc23)n1 (stereo not drawn) + Cc1cnc(CNC(=O)c2c(=O)c3ccc(N4CCCN(C)CC4)nc3n3c2sc2ccccc23)cn1" numeric_value=6.39

Entry O=C(NO)c1cnc(N2CCN(S(=O)(=O)c3ccc4ccccc4c3)CC2)nc1 + CN(C)c1ccc(Nc2c3ccc(NC(=O)CCN4CCCC4)cc3nc3cc(NC(=O)CCN4CCCC4)ccc23)cc1 , IC50 reported as 0.0973

----------
For each of the molecules below, state its viability, T/C.
# Tested on: 596521-263-R-J1-PDC complex spheroids, viability % of control
# ASSAY_METHOD_TEXT: Anticancer human tumor 596521-263-R-J1-PDC cell line growth inhibition [GQUAD];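 further: spheroids exposed to drugs for 7 days before viability reading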;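 on viability, T/C: 100% = DMSO vehicle control viability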
# EXPERIMENTAL_CONDITIONS: second compound 0.0316 µM; first compound 0.1 µM; stronger effect = lower value
One number for each entry, in %.

Worked cases, viability, T/C given:
molecule="Cc1cccc(N(C)C(=O)C2C(O)CCN2c2nc(C)cc(C(F)(F)F)c2C#N)c1 (stereo not drawn) + Cc1cnc(CNC(=O)c2c(=O)c3ccc(N4CCCN(C)CC4)nc3n3c2sc2ccccc23)cn1" tgt="596521-263-R-J1-PDC complex spheroids, viability % of control" measured_quantity="viability, T/C" numeric_value=98.5
molecule="O=C(NO)c1cnc(N2CCN(S(=O)(=O)c3ccc4ccccc4c3)CC2)nc1 + Cc1[nH]c2ccc(F)cc2c1-c1nc2c3cccnc3c3ncccc3c2[nH]1" tgt="596521-263-R-J1-PDC complex spheroids, viability % of control" measured_quantity="viability, T/C" numeric_value=28.2

Now for another entry.
Entry CC(C)n1c(=O)n(C)c2cnc3cc(F)c(-c4ccc(OCCCN5CCCCC5)nc4)cc3c21 + Cc1cnc(CNC(=O)c2c(=O)c3ccc(N4CCCN(C)CC4)nc3n3c2sc2ccccc23)cn1 , viability, T/C reported as 67

----------
# Tested on: 596521-263-R-J1-PDC complex spheroids, viability % of control
# ASSAY_METHOD_TEXT: Anticancer human tumor 596521-263-R-J1-PDC cell line growth inhibition [GQUAD];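 further: spheroids exposed to drugs for 7 days before viability reading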;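 on viability, T/C: 100% = DMSO vehicle control viability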
# EXPERIMENTAL_CONDITIONS: second compound 0.0316 µM; first compound 0.000999 µM; stronger effect = lower value
For each of the compounds below, state its viability, T/C.
Give bare numbers, in %.

Worked cases, viability, T/C given:
compound="CCc1c2c(nc3ccc(O)cc13)-c1cc3c(c(=O)n1C2)COC(=O)[C@]3(O)CC + Cc1[nH]c2ccc(F)cc2c1-c1nc2c3cccnc3c3ncccc3c2[nH]1" unit_text=% numeric_value=65.8
compound="Cn1ncnc1[C@H]1c2n[nH]c(=O)c3cc(F)cc(c23)N[C@@H]1c1ccc(F)cc1 + Cc1cnc(CNC(=O)c2c(=O)c3ccc(N4CCCN(C)CC4)nc3n3c2sc2ccccc23)cn1" unit_text=% numeric_value=108
compound="CC[C@@]1(O)C(=O)OCc2c1cc1n(c2=O)Cc2cc3c(CN(C)C)c(O)ccc3nc2-1 + CN(C)c1ccc(Nc2c3ccc(NC(=O)CCN4CCCC4)cc3nc3cc(NC(=O)CCN4CCCC4)ccc23)cc1" unit_text=% numeric_value=99.7
compound="CC[C@@]1(O)C(=O)OCc2c1cc1n(c2=O)Cc2cc3c(CN(C)C)c(O)ccc3nc2-1 + Cc1cnc(CNC(=O)c2c(=O)c3ccc(N4CCCN(C)CC4)nc3n3c2sc2ccccc23)cn1" unit_text=% numeric_value=107

Now for another entry.
Entry Cn1ncnc1[C@H]1c2n[nH]c(=O)c3cc(F)cc(c23)N[C@@H]1c1ccc(F)cc1 + CN(C)c1ccc(Nc2c3ccc(NC(=O)CCN4CCCC4)cc3nc3cc(NC(=O)CCN4CCCC4)ccc23)cc1 , viability, T/C reported as 106
